Below, each entry is listed with its recorded melting point.
ENDPOINT LABEL: melting point

1) COc1nc(-c2ccc(NCc3ccc(F)cc3)nn2)ccc1-n1cnc(C)c1
170 to 172 °C
2) COc1nc(-c2cc(C)c(NC(C)C)nn2)ccc1-n1cnc(C)c1
228 to 229 °C
3) COc1nc(-c2ccc(N[C@@H](C)c3ccc(F)cc3)nn2)ccc1-n1cnc(C)c1
96 to 102 °C
4) COc1nc(-c2cc(C)c(NCCc3ccc(F)cc3)nn2)ccc1-n1cnc(C)c1
204 to 206 °C
5) COc1nc(-c2cc(C(C)C)c(NCc3ccc(F)cc3)nn2)ccc1-n1cnc(C)c1
245 to 246 °C
6) COc1nc(-c2ccc(NC(=O)c3ccc(F)cc3)nn2)ccc1-n1cnc(C)c1 [Example 24B]
> 250 °C
7) COc1nc(-c2cc(C)c(NCCCc3ccc(F)cc3)nn2)ccc1-n1cnc(C)c1
204 to 206 °C
8) COc1nc(-c2cc(C)c(N[C@@H]3C[C@H]3c3ccccc3)nn2)ccc1-n1cnc(C)c1 (racemic)
99 to 102 °C
9) COc1nc(-c2ccc(N)nn2)ccc1-n1cnc(C)c1 [Example 24A]
> 250 °C
10) COc1nc(-c2nnc(N[C@@H](C)c3ccccc3)cc2C)ccc1-n1cnc(C)c1
140 to 143 °C
